Measured log10(EC50) accompanies every entry in the list below.
test system: HIV-IIIb IN T174I BT; assay: Antiviral assay in MT4 cells, HIV-IIIb IN T174I BT virus (from viral breakthrough); type: cell-based, HIV-1; conditions: Human immunodeficiency virus 1, IIIB, MT4, 120 h, read-out: T174I BT EC50, MT4 cells, HIV-IIIb IN T174I BT (viral breakthrough), 5 days, CellTiter-Glo
reported.property: log10(EC50) (log10 of the value in nM)

compound: Cc1cc2nc(-c3ccc4[nH]nc(C5CCN(C6COC6)CC5)c4n3)sc2c(-c2ccc(Cl)cc2)c1[C@H](OC(C)(C)C)C(=O)O [Compound 174]
reported.property: log10(EC50)
recorded.number: 2.34
//
compound: CN[C@@H]1CCN(c2nn(C)c3ccc(-c4nc5cc(C)c([C@H](OC(C)(C)C)C(=O)O)c(-c6ccc(Cl)cc6)c5s4)cc23)C1 [Compound 95]
reported.property: log10(EC50)
recorded.number: 3.24
//
compound: Cc1cc2nc(-c3ccc4c(c3)c(N3CCC(C5COC5)CC3)nn4C)sc2c(-c2ccc(Cl)cc2)c1[C@H](OC(C)(C)C)C(=O)O [Compound 146]
reported.property: log10(EC50)
recorded.number: 3.24
//
compound: Cc1cc2nc(-c3ccc4c(n3)c(C3CCN(C5CN(C)C5)CC3)nn4C)sc2c(-c2ccc(Cl)cc2)c1[C@H](OC(C)(C)C)C(=O)O [Compound 184]
reported.property: log10(EC50)
recorded.number: 2.01
//
compound: Cc1cc2nc(-c3ccc4c(c3)c(N3CCNC3=O)nn4C)sc2c(-c2ccc(Cl)cc2)c1[C@H](OC(C)(C)C)C(=O)O [Compound 78]
reported.property: log10(EC50)
recorded.number: 3.43
//
compound: Cc1cc2nc(-c3ccc4c(c3)c(N3CCN5CCOC[C@@H]5C3)nn4C)sc2c(-c2ccc(Cl)cc2)c1[C@H](OC(C)(C)C)C(=O)O [Compound 4]
reported.property: log10(EC50)
recorded.number: 3.10
//
compound: COC1CN(c2nn(C)c3ccc(-c4nc5cc(C)c([C@H](OC(C)(C)C)C(=O)O)c(-c6ccc(Cl)cc6)c5s4)cc23)C1 [Compound 2]
reported.property: log10(EC50)
recorded.number: 3.01
//
compound: CC(=O)N1CCC(c2nn(C)c3ccc(-c4nc5cc(C)c([C@H](OC(C)(C)C)C(=O)O)c(-c6ccc(Cl)cc6)c5s4)cc23)C1 (stereo partly drawn) [Compound 74]
reported.property: log10(EC50)
recorded.number: 2.54
//
compound: Cc1cc2nc(-c3ccc4c(n3)c(C3CCN([C@H]5C[C@@H](O)C5)CC3)nn4C)sc2c(-c2ccc(Cl)cc2)c1[C@H](OC(C)(C)C)C(=O)O [Compound 188]
reported.property: log10(EC50)
recorded.number: 2.29
//
compound: Cc1cc2nc(-c3ccc4c(c3)c(C3CCN(C5CCC5)CC3)nn4C)sc2c(-c2ccc(Cl)cc2)c1[C@H](OC(C)(C)C)C(=O)O [Compound 129]
reported.property: log10(EC50)
recorded.number: 2.71
//
compound: Cc1cc2nc(-c3ccc4c(c3)c(C3CCN(C5COC5)CC3)nn4C)sc2c(-c2ccc(Cl)cc2)c1[C@H](OC1CC1)C(=O)O [Compound 22]
reported.property: log10(EC50)
recorded.number: 1.68
//
compound: Cc1cc2nc(-c3ccc4c(c3)c(N3CCN([C@H]5C[C@@H](O)C5)CC3)nn4C)sc2c(-c2ccc(Cl)cc2)c1[C@H](OC(C)(C)C)C(=O)O [Compound 206]
reported.property: log10(EC50)
recorded.number: 2.53

###

system: HIV-IIIb IN T174I BT; test: Antiviral assay in MT4 cells, HIV-IIIb IN T174I BT virus (from viral breakthrough); format: cell-based, HIV-1; conditions: Human immunodeficiency virus 1, IIIB, MT4, 120 h, read-out: T174I BT EC50, MT4 cells, HIV-IIIb IN T174I BT (viral breakthrough), 5 days, CellTiter-Glo
Hi! Could you tag entries with EC50 below 300 nM as MET, and those at or above as NOT MET? Much appreciated.

molecule: [2H]C([2H])([2H])n1nc(C2CCN(C3CN(C(C)=O)C3)CC2)c2nc(-c3nc4cc(C)c([C@H](OC(C)(C)C)C(=O)O)c(-c5ccc(Cl)cc5)c4s3)ccc21
study.target: HIV-IIIb IN T174I BT
class: MET

molecule: Cc1cc2nc(-c3ccc4c(c3)c(C3CN(C(C)C)C3)nn4C)sc2c(-c2ccc(Cl)cc2)c1[C@H](OC(C)(C)C)C(=O)O
study.target: HIV-IIIb IN T174I BT
class: NOT MET

molecule: Cc1cc2nc(-c3ccc4c(c3)c(C3CCN(C(=O)C5CCO5)CC3)nn4C)sc2c(-c2ccc(Cl)cc2)c1[C@H](OC(C)(C)C)C(=O)O (stereo partly drawn)
study.target: HIV-IIIb IN T174I BT
class: NOT MET

molecule: Cc1cc2nc(-c3ccc4c(n3)c(C3CCN(C5CC5)CC3)nn4C)sc2c(-c2ccc(Cl)cc2)c1[C@H](OC(C)(C)C)C(=O)O
study.target: HIV-IIIb IN T174I BT
class: NOT MET

molecule: Cc1cc2nc(-c3ccc4c(c3)c(C3CCN(C5(C)COC5)CC3)nn4C)sc2c(-c2ccc(Cl)cc2)c1[C@H](OC(C)(C)C)C(=O)O
study.target: HIV-IIIb IN T174I BT
class: MET

###

Tested on: HIV-IIIb (wildtype)
Assay: Antiviral assay in MT4 cells, HIV-IIIb wildtype
Format: cell-based, HIV-1
Conditions: Human immunodeficiency virus 1, IIIB, MT4, 120 h, read-out: WT EC50
Description: Antiviral Assay in MT4 Cells […] Assay plates were then maintained in a humidified, 5% CO2 incubator at 37° C. […] Cell lysis was carried out by incubating at room temperature for 10 minutes and then chemiluminescence was read using an Envision plate reader (PerkinElmer). […]
Measured EC50 accompanies every entry in the list below.

smiles.representation: Cc1cc2nc(-c3ccc4c(c3)c(C3CCN(C5CS(=O)(=O)C5)CC3)nn4C)sc2c(-c2ccc(Cl)cc2)c1[C@H](OC(C)(C)C)C(=O)O
EC50 [nM]: 10
--
smiles.representation: COC(=O)N1CC(N2CCC(c3cn(C)c4ncc(-c5nc6cc(C)c([C@H](OC(C)(C)C)C(=O)O)c(-c7ccc(Cl)cc7)c6s5)cc34)CC2)C1
EC50 [nM]: 11
--
smiles.representation: CO[C@@H]1CCN(c2nn(C)c3ccc(-c4nc5cc(C)c([C@H](OC(C)(C)C)C(=O)O)c(-c6ccc(Cl)cc6)c5s4)cc23)C1
EC50 [nM]: 29

###

tested on: HIV-IIIb (wildtype); test: Antiviral assay in MT4 cells, HIV-IIIb wildtype; assay type: cell-based, HIV-1; conditions: Human immunodeficiency virus 1, IIIB, MT4, 120 h, read-out: WT EC50
Hi! Could you tag entries with EC50 below 5 nM as Satisfied, and those at or above as Not satisfied? Much appreciated.

compound: Cc1cc2nc(-c3ccc4c(c3)c(C3CCN(C5CCOC5)CC3)nn4C)sc2c(-c2ccc(Cl)cc2)c1[C@H](OC(C)(C)C)C(=O)O (stereo in doubt) [Compound 27]
class: Satisfied

compound: COC(=O)N1CC(N2CCC(c3c4nc(-c5nc6cc(C)c([C@H](OC(C)(C)C)C(=O)O)c(-c7ccc(Cl)cc7)c6s5)ccc4nn3C(F)F)CC2)C1
class: Not satisfied

compound: COC(=O)N1CC[C@@H](N2CCC(c3cn(C)c4ncc(-c5nc6cc(C)c([C@H](OC(C)(C)C)C(=O)O)c(-c7ccc(Cl)cc7)c6s5)cc34)CC2)C1
class: Not satisfied

compound: Cc1cc2nc(-c3ccc4c(c3)c(N3CCC(N5CCC5)CC3)nn4C)sc2c(-c2ccc(Cl)cc2)c1[C@H](OC(C)(C)C)C(=O)O
class: Not satisfied

compound: CCN1CCN(c2nn(C)c3ccc(-c4nc5cc(C)c([C@H](OC(C)(C)C)C(=O)O)c(-c6ccc(Cl)cc6)c5s4)cc23)CC1=O
class: Not satisfied

compound: Cc1cc2nc(-c3cnc4c(n3)c(C3CCN(C5COC5)CC3)cn4C)sc2c(-c2ccc(Cl)cc2)c1[C@H](OC(C)(C)C)C(=O)O
class: Satisfied

compound: COCCN1CCN(c2nn(C)c3ccc(-c4nc5cc(C)c([C@H](OC(C)(C)C)C(=O)O)c(-c6ccc(Cl)cc6)c5s4)cc23)CC1
class: Satisfied

compound: CCOC(=O)N1CC(N2CCC(c3nn(C)c4ncc(-c5nc6cc(C)c([C@H](OC(C)(C)C)C(=O)O)c(-c7ccc(Cl)cc7)c6s5)cc34)CC2)C1
class: Not satisfied

compound: Cc1cc2nc(-c3ccc4c(c3)c(N3CCC(C)(C(=O)N(C)C)CC3)nn4C)sc2c(-c2ccc(Cl)cc2)c1[C@H](OC(C)(C)C)C(=O)O
class: Not satisfied

compound: Cc1cc2nc(-c3ccc4c(c3)c(C3CCN(C(C)C)CC3)nn4C)sc2c(-c2ccc(Cl)cc2)c1[C@H](OC(C)(C)C)C(=O)O
class: Not satisfied

compound: CO[C@H]1CCN(c2nn(C)c3ccc(-c4nc5cc(C)c([C@H](OC(C)(C)C)C(=O)O)c(-c6ccc(Cl)cc6)c5s4)cc23)C1
class: Not satisfied
